# Test system: SARS-CoV-2
# protocol: Antiviral activity against SARS-CoV-2 MT020880 infected in African green monkey Vero cells measured after 48 hrs by spread assay
# Type: functional, organism-based, Severe acute respiratory syndrome coronavirus 2
# measurementContext: Severe acute respiratory syndrome coronavirus 2, MT020880, Vero, 48 h
recordedEndpoint: IC50 (µM)
Form entry: value (µM) — number only.

## Input So what does the record say about IC50 for CC(C)(C)c1ccc(CN2CCN(C[C@H](O)[C@@H](N)Cc3ccccc3)CC2)cc1 ?
## Output 8.46
